System: Influenza A virus
Experimental Protocol: Antiviral activity against influenza A H1N1 infected in MDCK cells assessed as reduction in viral replication by plaque reduction assay
Assay type: functional, organism-based
pEC50: −log10 of the molar value.
Endpoint: pEC50

>  <Structure Smiles>
CCc1c(C)nc2nnc(-c3ccccc3Cl)n2c1O

>  <Assayed Target>
Influenza A virus

>  <Measured Value>
6.26

$$$$

---

Assayed Target: Hepatitis C virus NS5B RNA-dependent RNA polymerase (Hepatitis C virus) (UniProt Q8JXU8)
Sequence (Q8JXU8 as listed by the source): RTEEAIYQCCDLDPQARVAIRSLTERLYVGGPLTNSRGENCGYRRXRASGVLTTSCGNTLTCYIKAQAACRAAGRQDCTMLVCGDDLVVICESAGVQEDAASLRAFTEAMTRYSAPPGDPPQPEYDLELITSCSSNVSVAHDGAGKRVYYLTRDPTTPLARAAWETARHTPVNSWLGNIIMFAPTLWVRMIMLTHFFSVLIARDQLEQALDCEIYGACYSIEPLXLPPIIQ
Experimental Protocol: Inhibition of Hepatitis C virus NS5B polymerase at 100 uM relative to control
Conditions Used: Hepacivirus hominis
Kind request: treat 70% as inclusive, so inhibition at 70% or higher is condition met, anything lower is condition not met.

>  <Molecule>
CCCCn1c(CC2(CC)OCCc3c2[nH]c2c(CC)cccc32)n[nH]c1=S (stereo not drawn)

>  <Cat>
condition met

$$$$
>  <Molecule>
CCc1cccc2c3c([nH]c12)C(CC)(Cc1n[nH]c(=S)n1C)OCC3 (stereo not drawn)

>  <Cat>
condition met

$$$$
>  <Molecule>
CCc1cccc2c3c([nH]c12)C(CC)(Cc1n[nH]c(=S)n1Cc1ccccc1)OCC3 (stereo not drawn)

>  <Cat>
condition not met

$$$$
>  <Molecule>
CCc1cccc2c3c([nH]c12)C(CC)(Cc1n[nH]c(=S)n1CC)OCC3 (stereo not drawn)

>  <Cat>
condition met

$$$$
>  <Molecule>
CCc1cccc2c3c([nH]c12)C(CC)(Cc1n[nH]c(=S)n1C1CCCCC1)OCC3 (stereo not drawn)

>  <Cat>
condition not met

$$$$
>  <Molecule>
CCc1cccc2c3c([nH]c12)C(CC)(Cc1n[nH]c(=S)n1-c1ccccc1)OCC3 (stereo not drawn)

>  <Cat>
condition not met

$$$$
>  <Molecule>
C=CCn1c(CC2(CC)OCCc3c2[nH]c2c(CC)cccc32)n[nH]c1=S (stereo not drawn)

>  <Cat>
condition not met

$$$$

---

Experimental Protocol: Selectivity index, ratio of CC50 for cytotoxicity against African green monkey Vero E6 cells assessed as reduction in cell viability to EC50 for antiviral activity against SARS-CoV-2 infected in African green monkey Vero E6 cells assessed as inhibition of virus growth
Format: toxicity, cell-based, Vero C1008
Conditions Used: read-out: Ratio CC50/EC50

>  <Structure Smiles>
COc1ccccc1-n1cc(COC(=O)c2cnccn2)nn1

>  <selectivity ratio>
2.1

$$$$
>  <Structure Smiles>
O=C(OCc1cn(-c2ccc([N+](=O)[O-])cc2)nn1)c1cnccn1

>  <selectivity ratio>
10.3

$$$$
>  <Structure Smiles>
NC(=O)c1nc(F)cnc1O

>  <selectivity ratio>
3.8

$$$$
>  <Structure Smiles>
O=C(OCc1cn(-c2ccc(F)cc2)nn1)c1cnccn1

>  <selectivity ratio>
0.3

$$$$
>  <Structure Smiles>
O=C(OCc1cn(-c2ccccc2Cl)nn1)c1cnccn1

>  <selectivity ratio>
3.7

$$$$
>  <Structure Smiles>
O=C(OCc1cn(-c2ccc(Cl)cc2)nn1)c1cnccn1

>  <selectivity ratio>
1.7

$$$$
>  <Structure Smiles>
COc1ccc(-n2cc(COC(=O)c3cnccn3)nn2)cc1

>  <selectivity ratio>
3.2

$$$$

---

Assayed Target: CYP2D6 (Homo sapiens, UniProt P10635)
Sequence (P10635 whole entry): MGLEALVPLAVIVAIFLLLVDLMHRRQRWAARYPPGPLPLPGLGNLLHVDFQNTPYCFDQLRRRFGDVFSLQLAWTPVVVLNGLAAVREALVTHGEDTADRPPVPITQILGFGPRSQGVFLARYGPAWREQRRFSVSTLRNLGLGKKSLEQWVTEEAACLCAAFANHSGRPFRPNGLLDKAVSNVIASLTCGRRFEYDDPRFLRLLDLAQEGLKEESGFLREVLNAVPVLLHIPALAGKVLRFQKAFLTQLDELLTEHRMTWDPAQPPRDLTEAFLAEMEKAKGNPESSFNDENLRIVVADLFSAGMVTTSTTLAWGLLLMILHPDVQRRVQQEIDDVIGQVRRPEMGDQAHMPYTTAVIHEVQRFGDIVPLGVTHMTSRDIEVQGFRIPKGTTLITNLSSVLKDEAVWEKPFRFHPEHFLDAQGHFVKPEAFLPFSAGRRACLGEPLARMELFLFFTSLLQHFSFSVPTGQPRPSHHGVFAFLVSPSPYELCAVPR
Experimental Protocol: Inhibition of CYP2D6 (unknown origin)
Assay type: ADME
pIC50: −log10 of the molar value.

>  <Molecule>
CCC(C#N)(CC)c1ccc(CCC2(C3CCCC3)CC(O)=C(Cc3nc4nc(C)cc(C)n4n3)C(=O)O2)cc1F (configuration not stated)

>  <pIC50>
< 5.22

$$$$
>  <Molecule>
Cc1cc(C)n2nc(CC3=C(O)CC(CCc4ccc(C(C)(C)O)c(F)c4)(C4CCCC4)OC3=O)nc2n1 (configuration not stated)

>  <pIC50>
< 5.22

$$$$
